- protocol: Stability of chelates in rat serum (CM-Sephadex assay, serum binding)
- condition_set: 24 hours in rat serum at room temperature; Fraction 3: column and contents (retained)
quantity_name: dpm (dpm)
Write down the numeric answer in dpm and omit the unit.

Take a look at these entries with their results.
molecule	measured_value
[Cl][Eu]([Cl])[Cl] [Europium chloride, reference compound]	2940
[Cl][La]([Cl])[Cl] [Lanthanum chloride, reference compound]	46450
O=C([O-])CN(CCN(CC(=O)[O-])CC(=O)[O-])CCN(CC(=O)[O-])CC(=O)[O-].[La+3]	0
[Cl][Sm]([Cl])[Cl] [Samarium chloride, reference compound]	108299

Entry O=C([O-])CN(CCN(CC(=O)[O-])CC(=O)[O-])CCN(CC(=O)[O-])CC(=O)[O-].[Eu+3] — recorded dpm = 0
